- System: ovariectomized (OVX) female Sprague Dawley rats
- methodSummary: Serum cholesterol in ovariectomized rats (post-menopausal model), 4 days of daily dosing
- Assay type: in vivo, rat
- conditionSet: 10 mg/kg, oral, daily for 4 days
parameterMeasured: Cholest. % dec. OVX (%)
Numbers only, in %.

Previously resolved entries follow.
# compound, measuredResult
rows = [
    ("CC1CC(C)CN(CCOc2ccc(C(=O)c3c(-c4ccc(O)cc4)sc4cc(O)ccc34)cc2)C1 (racemic)", 81.6),
    ("CC1(C)CCN(CCOc2ccc(C(=O)c3c(-c4ccc(O)cc4)sc4cc(O)ccc34)cc2)CC1", 65.8),
    ("CC1CCN(CCOc2ccc(C(=O)c3c(-c4ccc(O)cc4)sc4cc(O)ccc34)cc2)CC1", 51.6),
    ("O=C(c1ccc(OCCN2CCC[C@H]2CO)cc1)c1c(-c2ccc(O)cc2)sc2cc(O)ccc12", 74.5),
]

The compound listed as CC1CCCC(C)N1CCOc1ccc(C(=O)c2c(-c3ccc(O)cc3)sc3cc(O)ccc23)cc1 (centres unmarked) shows Cholest. % dec. OVX equal to 76.9

====

- Test system: ovariectomized (OVX) female Sprague Dawley rats
- methodSummary: Serum cholesterol in ovariectomized rats (post-menopausal model), 4 days of daily dosing
- Type: in vivo, rat
- conditionSet: 10 mg/kg, oral, daily for 4 days
Field: Cholest. % dec. OVX. Provide a value for each of the compounds that follow.
Numbers only, in %.

Previously resolved entries follow.
# smilesNotation, parameterMeasured, measuredResult
data = [
    ("CC1(C)CCCN(CCOc2ccc(C(=O)c3c(-c4ccc(O)cc4)sc4cc(O)ccc34)cc2)C1", "Cholest. % dec. OVX", 50.9),
    ("O=C(c1ccc(OCCN2CCC[C@@H]2CO)cc1)c1c(-c2ccc(O)cc2)sc2cc(O)ccc12", "Cholest. % dec. OVX", 71.9),
    ("COC[C@@H]1CCCN1CCOc1ccc(C(=O)c2c(-c3ccc(O)cc3)sc3cc(O)ccc23)cc1", "Cholest. % dec. OVX", 80.3),
]

// below: Cholest. % dec. OVX requested for another compound
The compound listed as `C[C@@H]1C[C@H](C)CN(CCOc2ccc(C(=O)c3c(-c4ccc(O)cc4)sc4cc(O)ccc34)cc2)C1` shows Cholest. % dec. OVX equal to 85.5

====

- System: ovariectomized (OVX) female Sprague Dawley rats
- methodSummary: Serum cholesterol in ovariectomized rats (post-menopausal model), 4 days of daily dosing
- Assay type: in vivo, rat
- conditionSet: 1 mg/kg, oral, daily for 4 days
parameterMeasured: Cholest. % dec. OVX (%)
Give bare numbers, in %.

Previously resolved entries follow.
# compound, Cholest. % dec. OVX (%)
records = [
    ("O=C(c1ccc(OCCN2CCC[C@H]2CO)cc1)c1c(-c2ccc(O)cc2)sc2cc(O)ccc12", 73.7),
    ("CC1CC(C)CN(CCOc2ccc(C(=O)c3c(-c4ccc(O)cc4)sc4cc(O)ccc34)cc2)C1 (racemic)", 69.7),
    ("CC1(C)CCCN(CCOc2ccc(C(=O)c3c(-c4ccc(O)cc4)sc4cc(O)ccc34)cc2)C1", 58.6),
    ("CC1CCN(CCOc2ccc(C(=O)c3c(-c4ccc(O)cc4)sc4cc(O)ccc34)cc2)CC1", 71.0),
    ("CC1CCCC(C)N1CCOc1ccc(C(=O)c2c(-c3ccc(O)cc3)sc3cc(O)ccc23)cc1 (stereo not drawn)", 62.3),
    ("C[C@@H]1C[C@H](C)CN(CCOc2ccc(C(=O)c3c(-c4ccc(O)cc4)sc4cc(O)ccc34)cc2)C1", 66.8),
    ("CC1(C)CCN(CCOc2ccc(C(=O)c3c(-c4ccc(O)cc4)sc4cc(O)ccc34)cc2)CC1", 25.9),
    ("COC[C@@H]1CCCN1CCOc1ccc(C(=O)c2c(-c3ccc(O)cc3)sc3cc(O)ccc23)cc1", 65.4),
]

The compound listed as `O=C(c1ccc(OCCN2CCC[C@@H]2CO)cc1)c1c(-c2ccc(O)cc2)sc2cc(O)ccc12` shows Cholest. % dec. OVX equal to 40.6
